Parameter: growth. Scope: all listed entries.
tested on: PC-3 prostate; assay: NCI-60 one-dose screen, 48 h (100 = growth as untreated, 0 = no growth, -100 = all killed); conditions: 10 µM unless noted
This is part of a sample that, as a whole, favours compounds with a hit. Of some 83,000 tested, about 20% had one in any assay.
measured_metric: growth (%)

[
  {
    "molecule": "O=C1NC(=O)C(=Cc2cc(-c3ccc(Cl)cc3)n(-c3ccccc3)n2)C(=O)N1",
    "unit_text": "%",
    "endpoint_value": 100
  },
  {
    "molecule": "COc1ccc(-c2ccc(-c3ccc(C(=N)N)nc3)s2)cc1",
    "unit_text": "%",
    "endpoint_value": -37.4
  },
  {
    "molecule": "Cn1nc(-c2ccc(Cl)cc2)nc2c(=O)n(C)c(=O)nc1-2",
    "unit_text": "%",
    "endpoint_value": 16.6
  },
  {
    "molecule": "CCN(CC)CCCC(Nc1c2ccc(Cl)cc2nc2ccc(OC)cc12)c1ccncc1 (stereo unspecified)",
    "unit_text": "%",
    "endpoint_value": 66.6
  },
  {
    "molecule": "NS(=O)(=O)Oc1cccc(-c2nc3sccn3c2-c2ccccc2)c1",
    "unit_text": "%",
    "endpoint_value": 72.4
  },
  {
    "molecule": "Cc1nc2ccccc2c(/C=C/c2ccc(Cl)cc2)c1C(=O)/C=C/c1ccccc1",
    "unit_text": "%",
    "endpoint_value": 23.3
  },
  {
    "molecule": "OC1CSSC1Cn1cnc2c(Nc3ccc(F)c(Cl)c3)ncnc21 (stereo unspecified)",
    "unit_text": "%",
    "endpoint_value": 80.5
  },
  {
    "molecule": "CCCCCCCC/C=C\\CCCCCCCCOc1ccc(CC(=O)NCC[N+]2(C)CCCC2)cc1",
    "unit_text": "%",
    "endpoint_value": 9.45
  },
  {
    "molecule": "Nc1nc(Nc2ccc([N+](=O)[O-])cc2O)nc(C(Cl)(Cl)Cl)n1",
    "unit_text": "%",
    "endpoint_value": 91.6
  },
  {
    "molecule": "O=C1Nc2ccccc2/C1=C/c1cccn1CCCCCCn1c2ccccc2c(=O)c2ccccc21",
    "unit_text": "%",
    "endpoint_value": 40.1
  },
  {
    "molecule": "Cc1cc2c(c(C)n1)CN(C(=O)Nc1nc(-c3cncs3)ccc1N)C2",
    "unit_text": "%",
    "endpoint_value": 104
  },
  {
    "molecule": "C=C1C(=O)O[C@H]2[C@H]1CC/C(COC(=O)NCc1ccc(Cn3c(=O)sn(CCCC)c3=O)cc1)=C\\CC[C@@]1(C)O[C@@H]21",
    "unit_text": "%",
    "endpoint_value": 59.9
  },
  {
    "molecule": "COC(=O)[C@H](C)NC(=O)[C@@H]1CCCN1C(=O)CNC(=O)[C@H](C)N",
    "unit_text": "%",
    "endpoint_value": 102
  },
  {
    "molecule": "C=CC(=O)Nc1ccc2ncnc(Nc3cccc(NS(=O)(=O)CCC)c3Cl)c2c1",
    "unit_text": "%",
    "endpoint_value": 68
  },
  {
    "molecule": "CCN1C(=O)N(CC)C2C1NN=c1s/c(=C\\c3ccccc3)c(=O)n12 (stereo unspecified)",
    "unit_text": "%",
    "endpoint_value": 23.9
  },
  {
    "molecule": "CCN1CCN(c2nc(NNC(=O)c3ccc(OC)cc3)nc(N3CCN(C(c4ccccc4)c4ccccc4)CC3)n2)CC1",
    "unit_text": "%",
    "endpoint_value": 30.2
  },
  {
    "molecule": "O=C(Nc1ncc(Cc2cc(C(F)(F)F)ccc2Cl)s1)C(=S)N1CCOCC1",
    "unit_text": "%",
    "endpoint_value": 81.3
  },
  {
    "molecule": "O=C1C=CC2(O)OC(c3ccccc3)CC(=O)C2=C1O (stereo unspecified)",
    "unit_text": "%",
    "endpoint_value": 79.7
  },
  {
    "molecule": "CN(C)CCCN(CCC1CCCCC1)CCC1CCCCC1",
    "unit_text": "%",
    "endpoint_value": 46.9
  },
  {
    "molecule": "O=C1c2c(c3c4cc(F)ccc4oc3c3[nH]c4ccccc4c23)C(=O)N1O",
    "unit_text": "%",
    "endpoint_value": 32.3
  },
  {
    "molecule": "COc1nc2ccccc2cc1/C=[N+](\\[O-])c1ccccc1",
    "unit_text": "%",
    "endpoint_value": 60.3
  }
]
